Test: Exploration of solubility: 300 mg slurry in solvent (10 V) at 15~20° C.
Type: physicochemical
Details: 15 °C, organic solvent or mixture, thermodynamic from solid; IPA (10 V); 300 mg slurry at 15~20° C.
Source text: Exploration of Step 3: Amide Formation. Exploration of Product Solubility. Exploration of the Solubility of 4 in Various Solvents.
Recorded solubility, one value per entry.
State the answer as a number, implicitly in µg/mL.

CN1CCN(C(=O)[C@H](CCC(=O)O)NC(=O)c2ccc(-n3ccnn3)cc2)CC1; 900

Param item = COC(=O)CC[C@H](NC(=O)c1ccc(-n2ccnn2)cc1)C(=O)N1CCN(C)CC1 ; retrieve measured solubility.
14100

---

assay: Exploration of solubility: 300 mg slurry in solvent (10 V) at 15~20° C.; type: physicochemical; settings: 15 °C, organic solvent or mixture, thermodynamic from solid; THF (10 V); 300 mg slurry at 15~20° C.
Overview of recorded solubility for various molecules
Field: numeric (mg/mL). Do not append units.

COC(=O)CC[C@H](NC(=O)c1ccc(-n2ccnn2)cc1)C(=O)N1CCN(C)CC1; 84.2

For the molecule CN1CCN(C(=O)[C@H](CCC(=O)O)NC(=O)c2ccc(-n3ccnn3)cc2)CC1 , what solubility is on record?
1.2

---

assay: Exploration of solubility: 300 mg slurry in solvent (10 V) at 15~20° C.; type: physicochemical; details: 15 °C, organic solvent or mixture, thermodynamic from solid; DCM (10 V); 300 mg slurry at 15~20° C.
Measure: solubility (µg/mL)
Use µg/mL as the unit, but write only the number.

Fill in: solubility of CN1CCN(C(=O)[C@H](CCC(=O)O)NC(=O)c2ccc(-n3ccnn3)cc2)CC1 [Compound 4] is ___
1000

---

experiment: Exploration of solubility: 300 mg slurry in solvent (10 V) at 15~20° C.; assay type: physicochemical; conditions: 15 °C, organic solvent or mixture, thermodynamic from solid; Acetonitrile (10 V); 300 mg slurry at 15~20° C.
Measure: solubility
A complete answer gives the number and then names the unit.

CN1CCN(C(=O)[C@H](CCC(=O)O)NC(=O)c2ccc(-n3ccnn3)cc2)CC1 [Compound 4]; 0.4 mg/mL

Form field: reported solubility of COC(=O)CC[C@H](NC(=O)c1ccc(-n2ccnn2)cc1)C(=O)N1CCN(C)CC1 [Compound 3]
29.5 mg/mL

---

experiment: Exploration of solubility: 300 mg slurry in solvent (10 V) at 15~20° C.; format: physicochemical; settings: 15 °C, organic solvent or mixture, thermodynamic from solid; MTBE (10 V); 300 mg slurry at 15~20° C.
Measure: solubility (mg/mL)
Express the result in mg/mL but write the number alone.

Tell me the measured solubility of COC(=O)CC[C@H](NC(=O)c1ccc(-n2ccnn2)cc1)C(=O)N1CCN(C)CC1 , please.
0.6

---

Reported solubility is given for each of the following molecules.
test: Exploration of solubility: 300 mg slurry in solvent (10 V) at 15~20° C.; type: physicochemical; conditions: 15 °C, organic solvent or mixture, thermodynamic from solid; EtOAc (10 V); 300 mg slurry at 15~20° C.
Use µg/mL as the unit, but write only the number.

CN1CCN(C(=O)[C@H](CCC(=O)O)NC(=O)c2ccc(-n3ccnn3)cc2)CC1; 400

API: the following record is the query input.
Returns the measured solubility for the input molecule. Input: COC(=O)CC[C@H](NC(=O)c1ccc(-n2ccnn2)cc1)C(=O)N1CCN(C)CC1
9000

---

assay: Exploration of solubility: 300 mg slurry in solvent (10 V) at 15~20° C.; format: physicochemical; settings: 15 °C, organic solvent or mixture, thermodynamic from solid; MeOH (10 V); 300 mg slurry at 15~20° C.
Measure: solubility (mg/mL)
Please state the figure in mg/mL; there is no need to write the unit.

Form field: reported solubility of CN1CCN(C(=O)[C@H](CCC(=O)O)NC(=O)c2ccc(-n3ccnn3)cc2)CC1 [Compound 4]
37
